So I've got a bunch of binders here, and I need their kon values.
measured on: T1, recombinant human GPC3 protein (human, UniProt P51654 25-563)
T1 construct: also called human GPC3 full-length protein; recombinant GPC3 protein
protocol description: BLI (Octet), antibody on Protein A probe
Protocol: Using BLI technology (Octet), the antibody to be tested was captured on the Protein A probe. The binding capacity with human GPC3 protein (10 μg/ml as the initial concentration, 2-fold gradient, a total of 5 concentration points) was detected. The affinity constant KD was obtained according to the association and dissociation rates. The 49G8 humanized antibody binds to the recombinant GPC3 protein with high affinity. The affinity data is seen in Table 6.
# number only, unit M⁻¹ s⁻¹ dropped from output

Q: # lookup: kon of 49G8 (antibody, V domains shown, Chimeric human IgG1; also called 49G8 chimeric antibody; Mab 49G8) VH: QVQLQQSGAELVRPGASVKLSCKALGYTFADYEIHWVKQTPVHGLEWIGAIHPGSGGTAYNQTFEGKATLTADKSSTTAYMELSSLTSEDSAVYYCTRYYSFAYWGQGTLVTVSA VL: DVVMTQTPLSLPVSLGDQASISCRSSQSIVHSNGNTYLEWYLQKPGQSPKLLIYKVSNRFSGVPDRFSGSGSGTDFTLKISRVEAEDLGVYFCLQVTHVPLTFGAGTKLELK
Ans: 79700

Q: # lookup: kon of h49G8VHv6VKv4 (antibody, V domains shown, Humanized 49G8) VH: QVQLVQSGAEVKKPGSSVKVSCKASGYTFADYEIHWVRQAPGQGLEWMGAIHPGSGGTAYAQKFQGRVTLTADESSTTAYMELSSLRSEDTAVYYCTRYYSFAYWGQGTLVTVSS VL: DVVMTQSPLSLPVTPGEPASISCRSSQSIVHSNSNTYLEWYLQKPGQSPQLLIYKVSNRFSGVPDRFSGSGSGTDFTLKISRVEAEDVGVYFCLQVTHVPLTFGQGTKLEIK
Ans: 89900

Q: # lookup: kon of h49G8VHv6VKv3 (antibody, V domains shown, Humanized 49G8) VH: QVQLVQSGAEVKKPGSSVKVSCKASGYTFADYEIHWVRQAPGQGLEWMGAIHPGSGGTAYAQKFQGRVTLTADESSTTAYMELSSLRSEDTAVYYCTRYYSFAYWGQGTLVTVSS VL: DVVMTQSPLSLPVTPGEPASISCRSSQSIVHSNGNTYLEWYLQKPGQSPQLLIYKVSNRFSGVPDRFSGSGSGTDFTLKISRVEAEDVGVYFCLQVTHVPLTFGQGTKLEIK
Ans: 94800
